TESTED_ON: UniProtKB Q9Y233
QUANTITY_KIND: log10 IC50 (log10 of the value in µM)
Could you please treat all values as log10 of IC50 in µM?

A selection of reference data follows.
{"columns": ["MOLECULE", "log10 IC50"],
 "data": [
  ["Cc1nc2ccc(Cl)cc2nc1OCc1nc(-c2ccccc2)cn1C [Roche-Dataset for PDE10A, Compound 769]", -2.20],
  ["O=C1NCc2ccc(NC(=O)c3nc(C4CC4)ccc3Nc3cncnc3)cc21 [Roche-Dataset for PDE10A, Compound 788]", -1.70],
  ["Cc1cccc(CCc2nc(-c3ccccc3)cn2C)n1 [Roche-Dataset for PDE10A, Compound 328]", 0.97],
  ["Cc1c(Cl)cc(Cl)c2nc(CCc3nncn3-c3ccccc3)nn12 [Roche-Dataset for PDE10A, Compound 582]", -1.14],
  ["Cn1cc(-c2ccccc2)nc1CCc1ccccn1 [Roche-Dataset for PDE10A, Compound 467]", 1.00]
]}

What does the record list as log10 IC50 for Cn1ncc(C(=O)N2CCC2)c1C(=O)Nc1ccn(C2CCC2)n1 [Roche-Dataset for PDE10A, Compound 1093] ?
-0.30

What does the record list as log10 IC50 for Cc1ccc2c(c1)c(=O)n(C)c1c(C)nc(-c3ccccc3Cl)n21 [Roche-Dataset for PDE10A, Compound 948] ?
-1.57

What does the record list as log10 IC50 for Cc1[nH]c(-c2cccnc2)nc1CCN1C(=O)c2ccccc2C1=O [Roche-Dataset for PDE10A, Compound 260] ?
0.19
